From: paper PMC12342889

- MEASUREMENT_TARGET: MSI-1 RRM1-2 DM (Homo sapiens, UniProt O43347 1-200, E180N;K182M)
- Sequence (O43347 1-200 E180N/K182M): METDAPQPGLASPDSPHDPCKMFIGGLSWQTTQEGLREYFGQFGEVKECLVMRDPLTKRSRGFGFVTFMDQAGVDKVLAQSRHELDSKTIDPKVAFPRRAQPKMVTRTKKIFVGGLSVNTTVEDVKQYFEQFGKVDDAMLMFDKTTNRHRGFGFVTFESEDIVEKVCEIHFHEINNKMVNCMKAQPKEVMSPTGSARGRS
- ASSAY_PROTOCOL: SPR; KD1 monovalent; NMR: 50 mM Tris-HCl, 140 mM NaCl, 1 mM EDTA, 1 mM protease inhibitors, pH 7.2 (RRM1: pH 7.5), 298 K; fluorescence quenching: 50 mM Tris pH 7.2, 140 mM NaCl, 1 mM EDTA; SPR: biotinylated RNA immobilised, buffer not in the material
- RUN_PARAMETERS: protein: recombinant; label: biotin for SPR; unlabelled for NMR; single strand
pKd: −log10 of the molar value.
Listed next: entries and their corresponding pKd.
QUANTITY: pKd

>>> recorded_number("UUGUUAGUUAUUAGUU (ssRNA) [oligo-L3]")
7.01
>>> recorded_number("UUGAUAGUUAGCAGGU (ssRNA) [oligo-L3.2]")
7.01
